Target: T1, syntenin PDZ1–PDZ2 tandem (amino acids 107–275), wild type (human, UniProt O00560 107-275)
T1 construct: syntenin, PDZ1–PDZ2 tandem, amino acids 107–275; also called PDZ tandem of syntenin; PDZ1–PDZ2 tandem wild-type; source: ER2566 cells (pETM-11 vector), purified; not shown: His6, N-terminal, kept
T1 sequence (looked up): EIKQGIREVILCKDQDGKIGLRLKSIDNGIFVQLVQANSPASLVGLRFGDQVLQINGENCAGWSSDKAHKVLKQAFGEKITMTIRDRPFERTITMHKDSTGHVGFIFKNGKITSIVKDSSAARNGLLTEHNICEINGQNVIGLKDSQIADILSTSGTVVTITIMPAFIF
Assay: SPR; BIAcore T200, 25 °C; biotinylated Frizzled 7 19mer peptides (100 RU) immobilised on a streptavidin chip, His-tagged syntenin proteins as analytes; 10 mM HEPES pH 7.4, 150 mM NaCl, 0.005% Tween 20; equilibrium titration, apparent KD; without IP3
Settings: both partners purified
Ends that are not written are not given here.
MEASUREMENT_LABEL: Kd (µM)

>>> experimental_value("SWRRFYHRLSHSSKGETAV (also: biotinylated, position not given here, Frizzled 7, last 19 residues, part of the cytoplasmic domain; K-5 is lysine 569; Immobilised on a streptavidin sensor chip; also called 19 amino acids C-terminal peptide from Frizzled 7; Frizzled 7 19mer; source: synthetic peptide, GenScript) [Frizzled 7 wild-type 19mer, biotinylated C-terminal peptide (SWRRFYHRLSHSSKGETAV)]")
8
